Sourced from patent US7488716B2

Let's look at some substances and their measured Emax.
Biological target: GLP-1 receptor (Rattus norvegicus)
Construct: endogenous in cells; host or cells: RINm5F cells
Assay: Peptide signaling through GLP-1 receptor, cAMP scintillation proximity assay in RINm5F cells
Assay type: cell-based
Conditions: RIN-m5F; read-out: % GLP1 max
Where no end group is shown, it is not given here.
Your answer should be a plain number; it is taken to be in %.

Reported Emax for HSQGTFTSDYARYLDAAKAKEFIAWLVKGRG [G61] was 96

Query HSQGTFTSDYSKYLEGQAAKEFIAWLVKGR-NH2 [G5] yields Emax of 109

response.value for HSQGTFTSDYAKYLDAKKAKEFIAWLVKGRG [G58] (field: Emax) = 99

Reported Emax of HSQGTFTSDYAKYLDARRAKEFIAWLVKGCG [G76] : 85

The substance HSQGTFTSDYARYLDARRAREFIAWLVRGRGK [G85] showed Emax equal to 95.8

Reported Emax for HSQGTFTSDYAKYLDARRAKEFIAWLVCGRG [G74] was 88.7

Per the records, this substance ( HSQGTFTSDYAKYLDAARAKEFIAWLVKGR-NH2 [G57] ) has Emax equal to 132

get_value(item= HSQGTFTSDYARYLDARRAKEFIAWLVRGRG [G82] , readout=Emax) returns 97.1

For HSQGTFTSDYAKYLDAAKAKEFIAWLVKGRG [G60] the substance record lists Emax as 95.7

The reported value for HSQGTFTSDYAAYLDARRAKEFIAWLVKGR-NH2 [G56] in terms of Emax is 115

Recorded result, HSQGTFTSDYARYLDARRAREFIKWLVRGRG [G83] , Emax: 89.4

Record HSQGTFTSDYAKYLDARRAKEFIAWLVKGR-NH2 [G27] . Reported Emax: 98.1

// field: Emax; key: HSQGTFTSDYAKYLDARRAKEFIAWLVKGRG [G51] ; value = 91.2

The substance identified as HSQGTFTSDYARYLDARRAREFIAWLVKGRG [G84] registered its Emax at 114

Value of measured Emax for the entry HSQGTFTSDYARYLDAKKAKEFIAWLVKGRG [G59] : 102

---

Target: glucagon receptor (Rattus norvegicus)
Construct: glucagon receptor present in the plasma membranes isolated from rat liver; from tissue; host or cells: rat liver plasma membranes
Assay: Competitive binding of peptide to the glucagon receptor in rat liver plasma membranes (125I glucagon)
Where no end group is shown, it is not given here.
Values of IC50 strictly less than 100 nM map to condition met, and values of at least 100 nM map to condition not met.

substance="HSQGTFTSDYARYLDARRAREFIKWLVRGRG [G83]" assigned_label="condition met"
substance="HSQGTFTSDYARYLDARRAKEFIAWLVRGRG [G82]" assigned_label="condition met"
substance="HSQGTFTSDYAAYLDARRAKEFIAWLVKGR-NH2 [G56]" assigned_label="condition not met"

# TODO verify IC50 < 100 nM strictly for this substance: HSQGTFTSDYAKYLDAARAKEFIAWLVKGR-NH2 [G57]
condition not met

I wonder whether HSQGTFTSDYARYLDARRAREFIKWLVRGRC [G185] has IC50 below 100 nM. Can you tell?
condition met

---

Biological target: GLP-1 receptor (Rattus norvegicus, UniProt P32301)
Construct: endogenous in cells; host or cells: RINm5F cells
Assay: Competitive binding of peptide to the GLP-1 receptor in RINm5F cell plasma membranes (125I GLP-1)
Conditions: read-out: GLP1 RIN IC50
Description: Flasks of RINm5F cells were washed with PBS, scraped in 20 mM Hepes-1 mM EDTA-250 mM sucrose buffer containing protease inhibitors (HES) and homogenized in a dounce homogenizer followed by repeated resuspension through a 23 gauge needle. […] Competitive binding of some polypeptides of the invention to RINm5F cell plasma membranes was measured as follows. […] The plates were dried, scintillant was added to each well, and cpm per well determined using a Wallac Microbeta counter.
Where no end group is shown, it is not given here.
QUANTITY MEASURED: log10 of IC50 (log10 of the value in nM)
Hi team, quick reminder: these entries are log10 of IC50 (nM).

Below: 4 substances and their reported log10 of IC50.
substance="HSQGTFTSDYARYLDARRAREFIAWLVRGRGK [G85]" quantitative_readout=0.18
substance="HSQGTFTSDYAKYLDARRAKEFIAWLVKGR-NH2 [G27]" quantitative_readout=0.34
substance="HSQGTFTSDYARYLDAKKAKEFIAWLVKGRG [G59]" quantitative_readout=0.32
substance="HSQGTFTSDYAKYLDARRAKEFIAWLVKCRG [G75]" quantitative_readout=0.89

# log10 of IC50 measured on GLP-1 receptor (Rattus norvegicus, UniProt P32301) for item HSQGTFTSDYSKYLEGQAAKEFIAWLVKGR-NH2 [G5] = -0.30

Reported log10 of IC50 (GLP-1 receptor (Rattus norvegicus, UniProt P32301)) for entry HSQGTFTSDYAKYLDAKKAKEFIAWLVKGRG [G58] is 0.84

Per the reported GLP-1 receptor (Rattus norvegicus, UniProt P32301) data, HSQGTFTSDYARYLDAAKAKEFIAWLVKGRG [G61] has log10 of IC50 of 1.03

Per the reported GLP-1 receptor (Rattus norvegicus, UniProt P32301) data, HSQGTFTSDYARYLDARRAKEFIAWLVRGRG [G82] has log10 of IC50 of 0.91

Readout log10 of IC50 for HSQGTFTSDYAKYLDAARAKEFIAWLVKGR-NH2 [G57] , test system GLP-1 receptor (Rattus norvegicus, UniProt P32301), was 1.17

---

Target: GLP-1 receptor (Rattus norvegicus, UniProt P32301)
Construct: endogenous in cells; host or cells: RINm5F cells
Sequence (P32301 22-463): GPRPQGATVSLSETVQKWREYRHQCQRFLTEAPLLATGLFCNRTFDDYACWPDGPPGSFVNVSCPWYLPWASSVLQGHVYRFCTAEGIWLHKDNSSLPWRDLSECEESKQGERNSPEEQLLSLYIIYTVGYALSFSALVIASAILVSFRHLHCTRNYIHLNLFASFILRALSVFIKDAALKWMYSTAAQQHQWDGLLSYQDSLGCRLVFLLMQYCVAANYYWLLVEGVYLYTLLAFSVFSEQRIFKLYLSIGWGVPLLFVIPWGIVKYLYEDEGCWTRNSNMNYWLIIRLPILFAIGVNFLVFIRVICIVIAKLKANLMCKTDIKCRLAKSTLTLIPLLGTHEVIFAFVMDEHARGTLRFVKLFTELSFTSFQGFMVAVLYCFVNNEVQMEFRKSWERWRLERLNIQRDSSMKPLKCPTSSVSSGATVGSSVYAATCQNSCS
Test: Peptide signaling through GLP-1 receptor, cAMP scintillation proximity assay in RINm5F cells
Assay type: cell-based
Conditions: RIN-m5F; read-out: % GLP1 max
Where no end group is shown, it is not given here.
Let's look at some substances and their measured Emax.
# value in %; strip the unit string

Worked examples follow.
substance="HSQGTFTSDYARYLDARRAKEFIAWLVKGR-NH2 [G55]" unit_info=% quantitative_readout=116
substance="HSQGTFTSDYAKYLDARRACEFIAWLVKGRG [G71]" unit_info=% quantitative_readout=93.3
substance="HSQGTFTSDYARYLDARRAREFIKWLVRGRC [G185]" unit_info=% quantitative_readout=104
substance="HSQGTFTSDYAKYLDARRAKEFIAWLVKGRC [G77]" unit_info=% quantitative_readout=92.1

Result for HSQGTFTSDYAKYLDARRAKEFIAWLVKCRG [G75] , tested on GLP-1 receptor (Rattus norvegicus, UniProt P32301), Emax: 86.1

---

Below, each entry is listed alongside its reported IC50.
Molecular target: glucagon receptor (Rattus norvegicus, UniProt P30082)
Construct: glucagon receptor present in the plasma membranes isolated from rat liver; from tissue; host or cells: rat liver plasma membranes
Sequence (P30082 27-485): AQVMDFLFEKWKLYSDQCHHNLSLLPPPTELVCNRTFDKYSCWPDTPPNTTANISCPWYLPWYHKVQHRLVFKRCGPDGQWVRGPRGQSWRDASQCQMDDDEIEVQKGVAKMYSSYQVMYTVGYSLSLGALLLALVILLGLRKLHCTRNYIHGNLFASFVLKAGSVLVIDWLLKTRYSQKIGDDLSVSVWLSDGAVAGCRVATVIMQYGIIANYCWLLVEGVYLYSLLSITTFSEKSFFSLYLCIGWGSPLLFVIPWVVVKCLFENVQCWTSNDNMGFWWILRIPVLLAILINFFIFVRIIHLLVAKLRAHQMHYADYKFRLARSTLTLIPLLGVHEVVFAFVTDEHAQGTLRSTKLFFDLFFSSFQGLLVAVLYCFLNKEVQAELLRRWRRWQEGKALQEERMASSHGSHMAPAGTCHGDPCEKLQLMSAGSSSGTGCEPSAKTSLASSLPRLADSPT
Experiment: Competitive binding of peptide to the glucagon receptor in rat liver plasma membranes (125I glucagon)
Where no end group is shown, it is not given here.

Example results:
substance="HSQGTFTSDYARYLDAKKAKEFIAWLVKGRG [G59]" quantity_measured=IC50 result="97.5 nM"
substance="HSQGTFTSDYARYLDARRAKEFIAWLVKGR-NH2 [G55]" quantity_measured=IC50 result="139 nM"
substance="HSQGTFTSDYAKYLDARRAKEFIAWLVKGCG [G76]" quantity_measured=IC50 result="59.1 nM"

Okay, next one:
Case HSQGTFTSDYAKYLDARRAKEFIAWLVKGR-NH2 [G27] , glucagon receptor (Rattus norvegicus, UniProt P30082), IC50 recorded as 69.3 nM
